system: SK-MEL-2 melanoma; assay: NCI tumour cell line growth inhibition, 48 h
Parameter: TGI. Scope: all listed entries.

| COMPOUND | TGI |
| --- | --- |
| CN(C)CCOc1nc2c3cccnc3cc(-c3cccc(Cl)c3)c2c2ncccc12 | 3.79 µM |
| CCOC(=O)C1=C(O)c2ccccc2C(=O)C1=O | > 100 µM |
| CCn1c(-c2nonc2N)nc2c(C#CC(C)(C)O)nc(O[C@@H](CN)c3ccccc3)cc21 | 0.737 µM |
| Cc1nccc2c1cnc1ccnn12 | > 100 µM |
| c1ccc2cc(OCC3CO3)c(OCC3CO3)cc2c1 (stereo unspecified) | 29 µM |
| CC1(C)OC(=O)C(C)(C)OC1=O | > 100 µM |
| COc1ccc(NC(=O)c2sc3nc(C)c(C(O)c4ccc(OC)cc4)cc3c2N)cc1 (stereo unspecified) | > 50 µM |
| COc1ccc(NC(=O)Nc2ccc(Nc3nc(C)cc(Nc4ccc(C)cc4)n3)cc2)cc1 | 3.57 µM |
| NC1=CC(C(=O)c2ccncc2)c2nc3ccccc3nc21 (stereo unspecified) | > 100 µM |
| CC(=O)n1nc(-c2nc3ccccc3nc2Cl)cc1Cl | > 100 µM |
| COc1ccc(C2C(c3ccccc3)C(=O)N2c2cc(OC)c(OC)c(OC)c2)cc1I (stereo unspecified) | > 100 µM |

The measured values listed here are drawn from PubChem BioAssay (NCI).
